growth for assorted compounds
- Test system: EKVX NSCLC
- assay.overview: NCI-60 one-dose screen, 48 h (100 = growth as untreated, 0 = no growth, -100 = all killed)
- condition.label: 10 µM unless noted
This is part of a sample that, as a whole, favours compounds with a hit. Of some 83,000 tested, about 20% had one in any assay.
Answer in %, number only, no unit symbol.

{"columns": ["smiles.record", "result.value"],
 "data": [
  ["CCOC(=O)Nc1ccc(-c2nc(-c3cccc(OC)c3)c(-c3ccnc(Br)c3)[nH]2)cc1", 30.1],
  ["CSc1ccc2c(c1)c(CCN)c(C)n2Cc1ccc(Cl)c(Cl)c1", -86.7],
  ["Cc1ccc(-c2cnc3sc(C(=O)NCCc4ccccc4)c(C)n23)cc1", 86.8],
  ["O=CN(SSN(C=O)C1CCCCC1)C1CCCCC1", 95.3]
]}

// query Request - read-out growth | tested on EKVX NSCLC | compound `Cc1[nH]c(C(=O)Nc2ccc(C(=O)N3CCNCC3)cc2OC(C)C)c(Cl)c1Cl`
// result 82.8

----------
growth for assorted compounds
- Test system: UACC-257 melanoma
- assay.overview: NCI-60 one-dose screen, 48 h (100 = growth as untreated, 0 = no growth, -100 = all killed)
- condition.label: 10 µM unless noted
The panel holds about 83,000 compounds, 20% with a hit somewhere; the sample as a whole holds those more often.
Answer in %, number only, no unit symbol.

Below, 10 compounds whose answers are already recorded.
{"columns": ["compound", "unit.abbreviation", "result.value"],
 "data": [
  ["CCOC(=O)c1cn2ncnc(Oc3ccc(NC(=O)NCCN(CC)CC)c(Cl)c3)c2c1C", "%", -41.7],
  ["CC(C)n1cnc2c(Nc3cccc(Cl)c3)nc(N[C@H]3CCCC[C@@H]3N)nc21", "%", 64.1],
  ["CN(C)c1ccc2nc3ccc(=[N+](C)C)c([N+](=O)[O-])c-3sc2c1", "%", 12.8],
  ["CN1CCN(c2ccc(-c3ccc4ncc(C#N)c(Nc5ccc(F)c(Cl)c5)c4c3)cn2)CC1", "%", 34],
  ["COc1c(B(O)O)cc(F)cc1-c1nc2ccc3[nH]ncc3c2c2c1CCCC2", "%", 20.1],
  ["COc1ccn2c(C(C)=O)cc(C(=O)c3ccc4c(c3)Sc3ccccc3N4)c2c1", "%", 52],
  ["COc1cc(C)c(Cc2cnc(N)nc2N)cc1OC", "%", 111],
  ["CCN(CC)Cc1cc(Nc2c3ccc(Cl)cc3nc3ccc(OC)cc23)ccc1O", "%", -39.4],
  ["O=S(=O)(Nc1ccc(-c2nc(-c3cccc(OCCN4CCOCC4)c3)c(-c3ccnc(Br)c3)[nH]2)cc1)c1ccccc1", "%", 53.1],
  ["CC[C@H](C)C(=O)O[C@H]1CCC=C2C=C[C@H](C)[C@H](CC[C@@H]3CC=CC(=O)O3)[C@H]21", "%", 77.8]
]}

// query Recorded growth of `Clc1ccc(C(/C=C/c2sc(Cl)nc2Cl)=N/Nc2cc(Cl)cc(Cl)c2)cc1` , please.
// result 99.1

// query Recorded growth of `Cc1ccc(-c2nc3c(c(-c4ccccc4)nn3-c3ccccc3)c(-c3ccc(O)cc3)c2C#N)cc1` , please.
// result 93.9

// query Recorded growth of `CCOC(=O)/C=C1\S/C(=N\Nc2ccc([N+](=O)[O-])cc2[N+](=O)[O-])N(Cc2ccccc2)C1=O` , please.
// result 90.1

// query Recorded growth of `CCCCCCn1c(-c2ccc(C(=O)O/N=C(\N)c3ccc4ccccc4c3)cc2)nc(-c2ccccc2)c1-c1ccccc1` , please.
// result 82.2

// query Recorded growth of `COc1ccc2sc3c(NCCO)nc4ccccc4c3c(=O)c2c1` , please.
// result 109

// query Recorded growth of CCC12CCC[N+]3([O-])CCC4(C(=Nc5ccccc54)C(O)(C(=O)OC)C1)C23 (stereo not drawn) , please.
// result 115
